Entries and their EC50
- target or system: human GLP-1 receptor (hGLP-1R) (Homo sapiens)
- Construct: expressed in transfected cells
- Sequence (P43220 24-463): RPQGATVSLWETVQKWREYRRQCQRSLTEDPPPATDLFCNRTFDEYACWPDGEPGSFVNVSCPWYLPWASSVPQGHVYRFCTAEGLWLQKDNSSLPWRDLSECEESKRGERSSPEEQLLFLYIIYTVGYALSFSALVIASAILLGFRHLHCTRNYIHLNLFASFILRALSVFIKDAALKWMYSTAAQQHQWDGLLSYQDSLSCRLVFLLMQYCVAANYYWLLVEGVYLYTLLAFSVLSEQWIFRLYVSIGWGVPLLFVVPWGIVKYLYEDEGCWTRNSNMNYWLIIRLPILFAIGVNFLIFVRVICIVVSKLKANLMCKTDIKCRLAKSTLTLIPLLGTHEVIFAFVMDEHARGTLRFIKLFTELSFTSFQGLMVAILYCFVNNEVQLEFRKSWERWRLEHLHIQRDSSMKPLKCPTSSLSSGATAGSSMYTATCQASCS
- measurement notes: GLP-1 receptor assay, method A (CRE-luciferase reporter, BHK cells)
- Format: cell-based
- conditions: hGLP-1R Potency, 1% HSA, EC50, method A, in the presence of 1% HSA
Numbered stars: 1 amine (or outer) side, 2 acyl side, 3 side chain; on linkers, the order of the positions; unused ones are H or OH. Square brackets hold non-standard residues; d marks the D form. Side chains are listed from the residue outwards. * marks the point of attachment. C20 diacid = O=C(O)CCCCCCCCCCCCCCCCCCC(=O)*; C18 diacid = O=C(O)CCCCCCCCCCCCCCCCC(=O)*; γGlu = O=C(O)[C@H](CCC(=O)[*:2])N[*:1]; AEEA = NCCOCCOCC(=O)O; Aib = CC(C)(N)C(=O)O
Write the answer as a number in nM, unit excluded.

Y[Aib]EGTFTSDYSILLEEQAAREFIEWLLAGGPSGGGGEASHLSTAQTQRLSAELHK([AEEA-AEEA-γGlu-C20 diacid])LATLPRTETGSGSP-NH2 [Compound 96] ... 0.162
Y[Aib]EGTFTSDYSILLEEQAAREFIEWLLAGGPSSGAPPPSGGGEASHLSTAQTQRLSAELHK([AEEA-AEEA-γGlu-C18 diacid])LATLPRTETGSGSP-NH2 [Compound 49] ... 0.11
Y[Aib]EGTFTSDYSILLEEQAAREFIEWLLAGGPSSGEASHLSTAQTQRLSAELHK([AEEA-AEEA-γGlu-C18 diacid])LATLPRTETGSGSP-NH2 [Compound 50] ... 0.0663

Now look at this one.
Item Y[Aib]EGTFTSDYSILLEEQAAREFIEWLLAGGPSRGEASHLSTAQTQRLSAELHK([AEEA-AEEA-γGlu-C18 diacid])LATLPRTETGSGSP-NH2 [compound 68] has what recorded EC50?
0.0519
